target: furin, P09958; assay: furin cleavage Z-score vs untreated control; higher = more cleavage, active = 3.5 or more, inactive = 1 or less, 8 variable residues between constant flanks; conditions: 7.5 min;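 further: purified furin at 1:10 enzyme:substrate in 50 mM HEPES pH 7.5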
Sequence (P09958 whole entry): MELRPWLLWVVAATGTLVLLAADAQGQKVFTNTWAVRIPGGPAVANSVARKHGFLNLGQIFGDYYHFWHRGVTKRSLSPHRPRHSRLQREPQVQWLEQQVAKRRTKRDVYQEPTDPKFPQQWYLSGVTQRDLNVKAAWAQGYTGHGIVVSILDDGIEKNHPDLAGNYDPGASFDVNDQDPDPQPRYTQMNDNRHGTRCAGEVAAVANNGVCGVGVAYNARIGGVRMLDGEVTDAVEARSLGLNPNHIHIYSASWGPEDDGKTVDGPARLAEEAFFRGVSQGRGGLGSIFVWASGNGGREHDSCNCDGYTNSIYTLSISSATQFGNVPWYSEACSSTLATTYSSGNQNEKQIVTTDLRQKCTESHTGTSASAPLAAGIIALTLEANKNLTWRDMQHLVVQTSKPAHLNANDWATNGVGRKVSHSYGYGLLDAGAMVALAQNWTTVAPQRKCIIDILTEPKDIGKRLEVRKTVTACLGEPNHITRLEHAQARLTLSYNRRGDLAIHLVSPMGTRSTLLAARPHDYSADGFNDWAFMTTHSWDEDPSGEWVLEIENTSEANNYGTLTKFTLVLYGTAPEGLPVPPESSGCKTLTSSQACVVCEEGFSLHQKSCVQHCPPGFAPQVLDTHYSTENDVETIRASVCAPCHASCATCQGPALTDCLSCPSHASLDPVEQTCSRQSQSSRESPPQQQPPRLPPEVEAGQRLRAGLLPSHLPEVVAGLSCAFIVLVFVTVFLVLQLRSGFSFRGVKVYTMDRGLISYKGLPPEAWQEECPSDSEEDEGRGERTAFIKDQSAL
The other results are listed elsewhere or left out. How many sequences the whole screen found active is unknown.
readout type: furin cleavage Z-score
Give the figure by itself; no unit, no explanation.

Guide cases for furin cleavage Z-score, answers given:
In [3]: df
Out[3]:
                sequence_chain  recorded_value
0   CAGAVQNEITAGNASASA [HC975]           -1.74
1  CAMEECSQHVAGNASASA [HC1770]            0.37
2  CAEVVTSTEVAGNASASA [HC2232]         -0.0344

Continue with the next sequence.
**Q:** Could you please provide reported furin cleavage Z-score for CAHEMEECSQAGNASASA [HC1795] ? Thanks!
**A:** 0.638
